Cited source for all entries: PubChem BioAssay AID1220

# target entity: Mannose-6-phosphate isomerase (Homo sapiens)
# procedure summary: MPI inhibition at elevated mannose 6-phosphate – biochemical, fluorescence intensity, high mannose 6-phosphate, primary screen (AID 1220)
# run conditions: recombinant PMI enzyme, coupled fluorescence intensity; at 20 µM; active compounds read high
In all, about 190,000 compounds went through this assay and about 1,300 (0.68%) were called active. This is one part of a sample in which actives are shown more often than they occur.
Here the recorded inhibition is given for each entry.
Please respond with the number in % and leave the unit unwritten.

Before answering, review these 4 worked examples.
{"molecule": "Cc1nc2c(C(=O)NCc3ccc4c(c3)OCO4)c[nH]n2c(=O)c1Cl", "target entity": "Mannose-6-phosphate isomerase (Homo sapiens)", "meas value": 7.8}
{"molecule": "COc1ccc(-c2nnn(CC(=O)N(Cc3ccccc3Cl)C(C(=O)NCC3CCCO3)c3ccco3)n2)cc1OC (stereo not given)", "target entity": "Mannose-6-phosphate isomerase (Homo sapiens)", "meas value": 23.8}
{"molecule": "COCCOCCn1c(CCCO)nc2ccccc21", "target entity": "Mannose-6-phosphate isomerase (Homo sapiens)", "meas value": -2.6}
{"molecule": "CC(C)(CO)Nc1ccc([N+](=O)[O-])cc1[N+](=O)[O-]", "target entity": "Mannose-6-phosphate isomerase (Homo sapiens)", "meas value": 0.9}

What inhibition value was documented for this molecule, COc1cc(CC(=O)OCC(=O)Nc2ccc([N+](=O)[O-])cc2)cc(OC)c1OC ?
5.9

Now try NS(=O)(=O)c1cccc(NC(=O)CN2CCN(Cc3ccc4c(c3)OCO4)CC2)c1 .
10

Now try O=C(NCc1ccc(Cl)cc1)C(=O)NCC(c1cccnc1)N1CCN(c2ccc(F)cc2)CC1 (stereo not given) .
2.5

Now try CCC(=O)Nc1cccc2cccnc12 .
1.3

Now try Cc1ccc(-c2csc(NC(=O)CSc3ncn(-c4ccccc4)n3)n2)cc1 .
0

Now try Cc1nn2c(c1-c1ccc(Cl)cc1)N=C(c1ccco1)CC2c1ccccc1 (stereo not given) .
0.1
